system: K562 CRISPRi cells; assay: Constant region variant library pooled growth screen, K562; assay type: cell-based, human; conditions: sgRNA constant region variants; activity relative to the un-modified constant region cr995
Endpoint: Mean relative activity
// no unit, no text: just the number

Ask | Given the molecule cr287 (nucleic acid, listed as DNA, chemistry not fully specified) guide: GTTTAAGAGCTAAGCTGGAAACAGCATAGCAAGTTTAAATAAGGCTAGTCCGTTATCAACTTGATAAAGTGGCACCGACTCGGTGCT , what is its reported Mean relative activity?
Reply | 0.9686

Ask | Please give the result for cr371 (nucleic acid, listed as DNA, chemistry not fully specified) guide: GTTTAAGAGCTAAGCTGGAAACAGCATAGCAAGTTTAAATAAGGCTAGTCCGTCAGCAACTTGAAAAAGTGGCACCGACTCGGTGCT too.
Reply | 0.9355

Ask | Please give the result for cr780 (nucleic acid, listed as DNA, chemistry not fully specified) guide: GTTTAAGAGCTAAGCTGGAAACAGCATAGCAAGTTTAAATAAGGCTAGTCCGTTATCAACTGGAAACAGTGGCACCTAGTAGGTGCT too.
Reply | 0.9287

Ask | Please give the result for cr167 (nucleic acid, listed as DNA, chemistry not fully specified) guide: GTTTAAGAGCTAAGCTGGAAACAGCATAGCAAGTTTAAATAAGGCTAGTCCGTTATCAACCTGAAAAAGTGGCACCGAGTCGGTGCT too.
Reply | 0.9545

Ask | Please give the result for cr375 (nucleic acid, listed as DNA, chemistry not fully specified) guide: GTTTAAGAGCTAAGCTTGAAACAGCATAGCAAGTTTAAATAAGGCTAGTCCGTTATCAACTTGAAAAAGTGGCACCGAGTCGGTGCT too.
Reply | 0.9294

Ask | Please give the result for cr270 (nucleic acid, listed as DNA, chemistry not fully specified) guide: GTTTAAGAGCTAAGCTGGAAACAGCATAGCAAGTTTAAATAAGGCTAGTCCGTTATCATCCTGAAAAGGAGGCACTGAGTCAGTGCT too.
Reply | 0.9835

Ask | Please give the result for cr388 (nucleic acid, listed as DNA, chemistry not fully specified) guide: GTTTAAGAGCTAAGCTGGAAACAGCATAGCAAGTTTAAATAAGGCTAGTCCGTTATCAACTTGAAAAAGTGTAACCGAGTCGGTTAT too.
Reply | 0.9188
